pIC50: −log10 of the molar value.
Literature pIC50 values, system: human HIF-PHD2 (Homo sapiens, UniProt Q9GZT9).
measured-property: pIC50

>>> result_number("C[C@@H](c1ccc(Cl)c(F)c1)n1ncc2nc(-n3cc(C(=O)O)cn3)nc(O)c21")
7.92
>>> result_number("O=C(O)CCNC(=O)c1ncc(C(=O)NC2(c3ccc(Br)cc3)CC2)c(O)n1")
9.40
>>> result_number("O=C(O)c1cnn(-c2nc(O)c3c(cnn3Cc3ccc(N4CCC(C(F)(F)F)CC4)cc3)n2)c1")
7.42
>>> result_number("Cc1cc(Cl)ccc1-c1ccc(Cn2ncc3nc(-n4cc(C(=O)O)cn4)nc(O)c32)cc1")
7.80
>>> result_number("CC(C)C(c1cc(F)cc(F)c1)n1ncc2nc(-n3cc(C(=O)O)cn3)nc(O)c21 (stereo not shown)")
7.19
>>> result_number("CCC(c1ccc(F)c(Cl)c1)n1ncc2nc(-n3cc(C(=O)O)cn3)nc(O)c21 (single isomer, unassigned)")
7.55
>>> result_number("CN1Cc2c(c(O)c(C(=O)NCC(=O)O)c(=O)n2Cc2ccc(C(F)(F)F)cc2)CC1=O")
8.17
>>> result_number("CCc1ccc(Cn2c3c(c(O)c(C(=O)NCC(=O)O)c2=O)COC3)cn1")
8.27
>>> result_number("Cc1ccc(Cn2ncc3nc(-n4cc(C(=O)O)cn4)nc(O)c32)cc1-c1ccccc1")
7.60
>>> result_number("Cn1c(=O)c(C(=O)NCC(=O)O)c(O)c2cnc(-c3cccc(N4CCOCC4)c3)nc21")
8.30

* * *

Collected from the literature: IC50 of various compounds toward human HIF-PHD2 (Homo sapiens, UniProt Q9GZT9).
measured-property: IC50

>>> result("CN1CCOc2cc(-c3cnc4c(c3)c(O)c(C(=O)NCC(=O)O)c(=O)n4C)ccc21")
"50 to 100 nM"
>>> result("CCOC(=O)CNC(=O)c1ncc(C(=O)NCc2cccc3ccccc23)c(O)n1")
"100 to 10000 nM"
>>> result("Cn1c(=O)c(C(=O)NCC(=O)O)c(O)c2ccc(C#CC3CC3)nc21")
"< 50 nM"
>>> result("O=C(O)CNC(=O)C1=C(O)c2cc(Cl)ccc2C2(CCOC2)C1=O (stereo not shown)")
"< 100 nM"

* * *

pIC50: −log10 of the molar value.
Let's look at some pIC50 data for human HIF-PHD2 (Homo sapiens, UniProt Q9GZT9) that I collected from the literature.
measured-property: pIC50

>>> result_number("C[C@@H](c1ccc2c(c1)CCCC2)n1ncc2nc(-n3cc(C(=O)O)cn3)nc(O)c21")
7.42
>>> result_number("CC(C)(O)c1ccc(Cn2c3c(c(O)c(C(=O)NCC(=O)O)c2=O)CCOC3)cc1")
7.17
>>> result_number("O=C(O)c1cnn(-c2nc(O)c3nn(CCC(c4ccccc4)c4ccccc4)cc3n2)c1")
7.82
>>> result_number("CC(=O)OCOC(=O)CCNC(=O)c1ncc(C(=O)NC(c2ccccc2)c2ccccc2)c(O)n1")
8.51
>>> result_number("CC(c1ccc(F)c(C(F)(F)F)c1)n1ncc2nc(-n3cc(C(=O)O)cn3)nc(O)c21 (single isomer, unassigned)")
7.82
>>> result_number("COc1ccc(C(NC(=O)c2cnc(C(=O)NCC(C)C(=O)O)nc2O)c2ccc(OC)cc2)cc1 (single isomer, unassigned)")
8.00
>>> result_number("CC(C)n1ncc2nc(-n3cc(C(=O)O)cn3)nc(O)c21")
6.92
>>> result_number("CCC(CC)Cn1nc(F)c2nc(-n3cc(C(=O)O)cn3)nc(O)c21")
7.31
>>> result_number("C[C@@H](c1cc(C(F)(F)F)ccc1F)n1ncc2nc(-n3cc(C(=O)O)cn3)nc(O)c21")
6.74
>>> result_number("CC(C)C(c1ccc(F)c(F)c1)n1ncc2nc(-n3cc(C(=O)O)cn3)nc(O)c21 (single isomer, unassigned)")
7.64
>>> result_number("Cc1nn(CCC2CCCCC2)c2c(O)nc(-n3cc(C(=O)O)cn3)nc12")
7.68
>>> result_number("C[C@@H](c1ccc(C(F)(F)F)cc1)n1nc(F)c2nc(-n3cc(C(=O)O)cn3)nc(O)c21")
7.66
>>> result_number("O=C(O)c1cnn(-c2nc(O)c3c(n2)c(F)nn3CCC2CCCC2)c1")
7.82
>>> result_number("O=C(O)CNC(=O)c1c(O)c2c(n(Cc3ccc(-c4ccc(C(F)(F)F)cc4)cc3)c1=O)COCC2")
7.63
